The entries below are paired with their reported inhibition at 10 µM.
# Study target: 17β-hydroxysteroid dehydrogenase type 1 (17β-HSD type 1) (Homo sapiens, UniProt P14061)
# Construct: expressed in transfected cells; host or cells: MCF-7
# Sequence (P14061 whole entry): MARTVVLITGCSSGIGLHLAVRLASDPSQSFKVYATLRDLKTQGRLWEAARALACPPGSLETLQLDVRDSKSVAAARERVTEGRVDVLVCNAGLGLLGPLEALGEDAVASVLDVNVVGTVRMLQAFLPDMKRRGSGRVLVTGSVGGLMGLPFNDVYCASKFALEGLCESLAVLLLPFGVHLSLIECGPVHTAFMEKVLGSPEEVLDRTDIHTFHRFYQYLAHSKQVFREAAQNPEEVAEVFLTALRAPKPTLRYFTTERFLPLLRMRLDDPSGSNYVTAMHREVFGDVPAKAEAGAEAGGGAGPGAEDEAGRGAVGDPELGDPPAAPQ
# Test description: Inhibition of 17β-HSD type 1 in MCF-7 cells stably expressing the isoenzyme (tritium labeled estrone conversion, HPLC)
# Assay type: cell-based
# Assay conditions: MCF7; 10 μM test compound; MCF-7 cells expressing 17β-HSD type 1; 2 nM tritium labeled estrone; read-out: % Inhibition HSD1 10 μM
Number only, in %; omit the unit.

O=C(OCCn1c(-c2cccs2)nc2sc3c(c2c1=O)CCC(Br)C3=O)c1cccs1 (centres unmarked) [No. 71] :: 20.8
CCCCn1c(-c2cc(OC)c(OC)c(OC)c2Br)nc2sc3c(O)cc(C)cc3c2c1=O [No. 694] :: 10.9

I am curious: what inhibition at 10 µM value has been reported for CCCCn1c(-c2cc(OC)c(OC)c(OC)c2)nc2sc3c(c2c1=O)CCCC3=O [No. 86] ?
46.6

I am curious: what inhibition at 10 µM value has been reported for COc1cc(-c2nc3sc4c(c3c(=O)n2Cc2ccccc2)CCC(Br)(Br)C4=O)c(Br)c(OC)c1OC [No. 48] ?
36.5

I am curious: what inhibition at 10 µM value has been reported for CCC(C)Cn1c(-c2cc(OC)c(OC)c(OC)c2)nc2sc3c(O)cccc3c2c1=O (centres unmarked) [No. 129] ?
85.3

I am curious: what inhibition at 10 µM value has been reported for COCCn1c(-c2cc(OC)c(OC)c(OC)c2)nc2sc3c(c2c1=O)CCCC3 [No. 108] ?
11

I am curious: what inhibition at 10 µM value has been reported for COc1cc(-c2nc3sc4c(c3c(=O)n2Cc2ccccc2)C(Br)CCC4=O)cc(OC)c1OC (centres unmarked) [No. 137] ?
76

I am curious: what inhibition at 10 µM value has been reported for COc1cc(-c2nc3sc4c(c3c(=O)n2Cc2ccccc2)C(C)CCC4=O)cc(OC)c1OC (centres unmarked) [No. 684] ?
63.3

I am curious: what inhibition at 10 µM value has been reported for CCSC1=C(C=O)CCc2c1sc1nc(-c3cc(OC)c(OC)c(OC)c3)n(Cc3ccccc3)c(=O)c21 [No. 6] ?
44.2

I am curious: what inhibition at 10 µM value has been reported for CCC(C)Cn1c(-c2cc(OC)c(OC)c(OC)c2Cl)nc2sc3c(c2c1=O)CCC(Cl)C3=O (centres unmarked) [No. 141] ?
58.9

I am curious: what inhibition at 10 µM value has been reported for CCCCn1c(-c2cc(OC)c(OC)c(OC)c2)nc2sc3c(c2c1=O)CCC(Br)(Br)C3=O [No. 88] ?
40.5

I am curious: what inhibition at 10 µM value has been reported for COCCn1c(-c2cc(OC)c(OC)c(OC)c2Br)nc2sc3c(O)cccc3c2c1=O [No. 112] ?
54.4

I am curious: what inhibition at 10 µM value has been reported for O=C1CCCc2c1sc1nc(-c3cccs3)n(Cc3ccccc3)c(=O)c21 [No. 62] ?
32

I am curious: what inhibition at 10 µM value has been reported for COc1cc(-c2nc3sc4c(c3c(=O)n2CC(C)C)CCCC4)cc(OC)c1OC [No. 113] ?
57.6

I am curious: what inhibition at 10 µM value has been reported for COCc1nc2sc3c(c2c(=O)n1Cc1ccccc1)CCC(C=O)=C3Cl [No. 34] ?
64.2

I am curious: what inhibition at 10 µM value has been reported for CCOC(=O)c1nc2sc3c(c2c(=O)n1-c1ccccc1)CCCC3 [No. 40] ?
25

I am curious: what inhibition at 10 µM value has been reported for COc1cc(-c2nc3sc4ccccc4c3c(=O)n2Cc2ccccc2)c(Br)c(OC)c1OC [No. 51] ?
9.1
